ASSAY: physchem
CONDITIONS: water
OBSERVABLE: solubility

query: Please give the measured solubility for this compound: `CC(C)c1cccc(=O)c(O)c1`
result: ≤ 5 mM
